experiment: xn = mol fraction of the nth substance listed, in the solute-free solvent; conditions: 283.15 K; x2 = 0.4
Label Fulfilled for high-side solubility (g/100 g solution) (at or above 0.9) and Not fulfilled for low-side solubility (g/100 g solution) (below it).

compound	class_label
CCCCOc1ccc(C(=O)CCN2CCCCC2)cc1.Cl + CCO + CCOC(C)=O	Fulfilled
O=C1CCc2ccc(OCCCCN3CCN(c4cccc(Cl)c4Cl)CC3)cc2N1 + CCC(C)=O + CC(C)=O	Fulfilled
CCCCOc1ccc(C(=O)CCN2CCCCC2)cc1.Cl + CCO + CCCCCC	Fulfilled
COC1=CC(=O)CC(C)C12Oc1c(Cl)c(OC)cc(OC)c1C2=O (stereo unspecified) + CC(C)=O + CC(C)O	Not fulfilled
O=C(O)C1CSCN1 (stereo unspecified) + O + CC#N	Not fulfilled
CCCCOc1ccc(C(=O)CCN2CCCCC2)cc1.Cl + CCO + O	Fulfilled
CCCCOc1ccc(C(=O)CCN2CCCCC2)cc1.Cl + CO + C1CCOC1	Fulfilled
O=C1CCc2ccc(OCCCCN3CCN(c4cccc(Cl)c4Cl)CC3)cc2N1 + CCC(C)=O + CCCO	Fulfilled
COC1=CC(=O)CC(C)C12Oc1c(Cl)c(OC)cc(OC)c1C2=O (stereo unspecified) + CC(=O)CC(C)C + CC(C)O	Not fulfilled
COC1=CC(=O)CC(C)C12Oc1c(Cl)c(OC)cc(OC)c1C2=O (stereo unspecified) + CCC(C)=O + CC(C)O	Not fulfilled

====

experiment: xn = mol fraction of the nth substance listed, in the solute-free solvent; conditions: 288.15 K; x2 = 0.9
Quick rule: solubility (g/100 g solution) of at least 3 means Yes, below that means No.

compound	class_label
O=C1CCc2ccc(OCCCCN3CCN(c4cccc(Cl)c4Cl)CC3)cc2N1 + CCC(C)=O + CCCO	No
CCCCOc1ccc(C(=O)CCN2CCCCC2)cc1.Cl + CO + C1CCOC1	Yes
CC(=O)OC(c1ccccc1)C(Cl)(Cl)Cl (stereo not given) + CC(C)O + O	No
COC1=CC(=O)CC(C)C12Oc1c(Cl)c(OC)cc(OC)c1C2=O (stereo not given) + CC(=O)CC(C)C + CC(C)O	No
O=C1CCc2ccc(OCCCCN3CCN(c4cccc(Cl)c4Cl)CC3)cc2N1 + CCC(C)=O + CCOC(C)=O	No

====

experiment: xn = mol fraction of the nth substance listed, in the solute-free solvent; conditions: 308.15 K; x2 = 0.8
measurement_type: solubility (g/100 g solution)

molecule	test_result
O=C1CCc2ccc(OCCCCN3CCN(c4cccc(Cl)c4Cl)CC3)cc2N1 + CCC(C)=O + CC(C)=O	3.62
CC(=O)OC(c1ccccc1)C(Cl)(Cl)Cl (stereo not given) + CC(C)O + O	7.95
O=C1CCc2ccc(OCCCCN3CCN(c4cccc(Cl)c4Cl)CC3)cc2N1 + CCC(C)=O + CCCO	4.72
CC(=O)OC(c1ccccc1)C(Cl)(Cl)Cl (stereo not given) + CCO + O	7.63
CC(=O)OC(c1ccccc1)C(Cl)(Cl)Cl (stereo not given) + CC(=O)O + O	12
O=C1CCc2ccc(OCCCCN3CCN(c4cccc(Cl)c4Cl)CC3)cc2N1 + CCC(C)=O + CCOC(C)=O	3.25
O=C(O)c1ccc(C(=O)O)o1 + C1COCCO1 + O	2.62
O=C(O)c1ccc(C(=O)O)o1 + C1CCOC1 + O	5.96
CCCCOc1ccc(C(=O)CCN2CCCCC2)cc1.Cl + CCO + CCOC(C)=O	41
O=C(O)c1ccc(C(=O)O)o1 + O + COCCOCCOC	5.78

src = the CheMixHub drug solubility set
